meta.source: paper PMC7529893

Biological target: MAGE-A11:PCF11 interaction (GST-MAGE-A11 MHD and FAM-PCF11_4) (Homo sapiens, UniProt P43364)
Construct: GST-MAGE-A11 MHD (human MAGE-A11 MHD amino acid 218-429); made in house; host or cells: E. coli BL21(DE3)
Sequence (P43364 218-429): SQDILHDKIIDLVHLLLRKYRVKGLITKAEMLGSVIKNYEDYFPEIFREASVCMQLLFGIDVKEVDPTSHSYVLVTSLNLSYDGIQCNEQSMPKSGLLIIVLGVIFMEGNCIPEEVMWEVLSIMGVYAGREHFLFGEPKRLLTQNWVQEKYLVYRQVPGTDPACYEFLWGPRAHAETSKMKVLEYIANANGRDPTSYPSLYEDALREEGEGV
Assay: TR-FRET dose response test of compounds for disruption of MAGE-A11:PCF11 binding
Details: Supplementary Data 4; read-out: TR-FRET, IC50
value type: IC50 (µM)
API: value field is a number in µM; no unit string.

// query Using the record for `Brc1ccc2c(NCCCNCc3ccc4[nH]ccc4c3)ccnc2c1` , state its measured IC50.
// result 0.62

// query Specify IC50 for `c1ccc(-c2ccc3c(NCCCNCc4cccc5c4OCO5)ccnc3c2)cc1` and stop.
// result 20.6
